assay: basal S. cerevisiae growth modulation, no modifier, primary screen, OD600, strain BY4716, 24 h, basal condition (AID 1173); conditions: OD600, 24 h, higher = more signal, called active from +8 up or from −8 down
Outcome: Criterion met for z-score of at least 0.2; Criterion not met for anything lower.

* CN(C)CCCNC(=O)[C@@]1(C)c2ccccc2C(=O)N(Cc2ccccc2)[C@H]1c1ccc(CO)cc1 | Criterion met

## Task Hi, just wondering whether O=C1OCC=C[C@H]2OC34C=CCN(Cc5ccccc5)C(=O)[C@H]3N(CCCCCCO)C(=O)[C@@H]4[C@@H]12 (stereo partly drawn) shows z-score of 0.2 or higher.
## Result Criterion not met

## Task Then this compound: COCCOC(=O)N1C(=O)[C@@]2(c3cc(C#CCC(C(=O)OC)C(=O)OC)ccc31)[C@H](C(=O)N1CCc3cc(OC)c(OC)cc3C1)[C@H]1C(=O)O[C@H](c3ccccc3)[C@H](c3ccccc3)N1[C@@H]2c1ccc(OCCO)cc1
## Result Criterion met

## Task Then this compound: O=C(NCC(F)(F)F)[C@@H]1c2ccccc2C(=O)N(Cc2ccc(OC(F)(F)F)cc2)[C@H]1c1ccc(CO)cc1
## Result Criterion not met

## Task Then this compound: O=C1O[C@H](c2ccccc2)[C@H](c2ccccc2)N2[C@H]1[C@@H](C(=O)N1CCN(c3ncccn3)CC1)[C@]1(C(=O)Nc3ccc(C#CC4(O)CCCCCC4)cc31)[C@H]2c1ccc(OCCO)cc1
## Result Criterion met
